FYI, the data here is from the supplement of paper PMC12764529.

METHOD NOTES: folding stability dG unfold (combined trypsin and chymotrypsin); higher = more stable
Binary classification by folding stability dG unfold, with 3 kcal/mol as an inclusive lower bound for satisfied; all other cases are not satisfied.

SAGGMITEKVEKIDDGEIIKLTANLSDPSPVVAWLKATGKNVKLVEIKPTTDPETGNTTVNATFLLPSAGGS [r16_699_JUSTAS]: not satisfied
SVNPATQVVTVTREVTYPVPPSQGPISEEEAREAVEAELAARGWTLREVRVEYEGDTVTVTAVAERPAAASA [r9_1134_JUSTAS]: not satisfied
SAGMEITVPGPFLSQEVFDLPDRPYLVLPTPEGIAVIDLVTGEAVFYPFGTTEPIVVPVPPGEELDLLSAGG [r19_138_TrMRF]: not satisfied
SAGGSAGGSAGGSKPMYLFTVETENGKKLVIEAKSLEEALKALEKAGYKIKKVEVVKLPSAGGSAGGSAGGS [r4_213_TrROS_Hall]: satisfied

Test whether the sequence SAGGMRIELVRTYIEEPDENGKLKGSGYREVLVLRPPPPVIRVPPELLEEAEELRKKLDGPVEPEELGSAGG [r19_315_JUSTAS] records folding stability dG unfold of 3 kcal/mol or higher. satisfied

Is reported folding stability dG unfold greater than or equal to 3 kcal/mol here: SELEDMTPEQLRERIRELLEELREERPGEEVEITIEELLERLPGMSREQLAEILGLTEEELENRTITIRASA [r9_525_TrROS_Hall] not satisfied

* * *

METHOD NOTES: folding stability dG unfold (combined trypsin and chymotrypsin); higher = more stable
REPORTED PROPERTY: folding stability dG unfold

Use the examples below as a reference point.
SAGMTTLTLSAKAPPGEAVVTLTVTLPDGTTVPLATRTVAPDEVANITVSFPSGEPIDPARLTVEVTPPSAG [r5_287_JUSTAS]: 0.157 kcal/mol
SAGGMYVLPIDLDPASLTEEERLAVARELAEELYAAGVPGDVMLIIPREEKPLTITIDFATGEVTVVDSAGG [r19_204_JUSTAS]: 1.31 kcal/mol
SPTIKASYDPETGVLTVYVKLRDPETGEPIPAEAVAAKIKELFPDAEILDIEPNPDGYVKITVKVAPDAVSA [r9_87_TrMRF]: 3.72 kcal/mol
SAGMMVKVEIEFPLTLTTTEKVGTGPNGIPVFETREEIVVITFRATVPENPEEVAAAKEEAKAVAEALSSAG [r14_223_JUSTAS]: 1.89 kcal/mol
SADYVLYLVTLKVRRKVGDKEYELEVPLLILAPEDELDESEIEAIAREAAAELGAEVEEVKIERLPLNASAG [r14_278_TrMRF]: 4.66 kcal/mol
SMKIEIIERNEDGEYVLVRITFEDGEEITIVAKTEEEAKEAAKEIAKELFPDVKIKKIEVVPLEDLPEELSA [r9_137_TrROS_Hall]: 1 kcal/mol
SAGGPETRTFTIPAAPATVTVTLEKVGDGYRVSLTLTNPDGQTVEVPPDQPVVIPAGASVGAALAPESAGGS [r16_669_TrMRF]: 1.35 kcal/mol
SAGGKTLTIEVNGKKYKITVEKNENGELTLTIYEYDKKTKKWKKIKTIKLKNMSLEEVLKLLKKLPPSAGGS [r16_378_TrROS_Hall]: 4.58 kcal/mol
SAGGSAGGSAGGAKTTTLGSESEEEIRAVAAKLPADSTITTNRPGGTSVITVSPNEIVTNSAGGSAGGSAGG [r7_560_JUSTAS]: 0.836 kcal/mol
SAGSVTRSFPSGSSVSAETDPETNTITISTSPSSGQLVAQLPTAGEKVVPVSDRDLEEAAKEAAEALLSSAG [r5_447_JUSTAS]: -0.854 kcal/mol

For SAGPGNWFIMIFINIEIKLETVPDPDGKPWLKITISIKFFVMIVRLPPDGKARMEMFPITIKFTFTIPLSAG [r5_428_TrROS] , what is its reported folding stability dG unfold? > 6 kcal/mol

# query: folding stability dG unfold of entry SAGAPSTREFEILELVPLPPGTTAEELRATLEREVELPDDSVARIRVRAVFLSPGPAFALVLYRVEVRESAG [r5_939_TrMRF] 3.22 kcal/mol

Given SMPVTITITLHKDPNSDVIPVRLEMTDSAGNPIGEREIDYTTTEEEARERAVALAEEIAAATGYTIEFGESA [r9_31_JUSTAS] , state its recorded folding stability dG unfold. 0.8 kcal/mol

// query folding stability dG unfold value for entry SAGGSAGGSGDSITLPVSVPKGSELVIENLSTNKKVIIPDDGPVTITIDKGKDGLKISAEVEKSAGGSAGGS [r12_919_TrMRF] -0.0498 kcal/mol

What does the record list as folding stability dG unfold for SAGGSAGGSAAKVISVNPETGEVVVEYPDGSVGYFKVKGGVVEEVRSSPVLPVPEDDPLFTSAGGSAGGSAG [r3_406_TrMRF] ? 1.15 kcal/mol

Give its folding stability dG unfold value. Item: SMGMTPEEYILELVREALAADPDAAVTIDHDDIVRNTPNPISKEEIEKLAKEKTGVEDLTVTETPPDVPPSA [r9_738_JUSTAS] 0.265 kcal/mol

* * *

METHOD NOTES: folding stability dG unfold from chymotrypsin proteolysis; higher = more stable
Let's look at some sequences and their measured folding stability dG unfold.
Your answer should be a plain number; it is taken to be in kcal/mol.

SAGGSAGGSASWITITGLLPGGRLVTTRYDPSTGSVSTETTPIPPVPAFPLGPENLALNFLLSAGGSAGGSA [r18_236_JUSTAS]: 0.528

I'd like to know its folding stability dG unfold. The sequence in question is SAGMVITISSDLSPEEVLATAQALAAELGAKKVEVERDPANPDVVTVTVEFPGLGKTVTVNVLPPELLESAG [r5_912_JUSTAS] 1.78

Recorded folding stability dG unfold of SAGGSAGGSAGGIKLENPNGFEVYKSPDSMVEIEFVNPNGKPMRYIIQVDEPGEIKPYPVSAGGSAGGSAGG [r7_423_TrROS] , please. 0.0804

Recorded folding stability dG unfold of SAMLPSIIIAKAKEAIEKSGKPVPVVIKIPVYKKENGPPVSLEKAKEIFEKLKEAFPDVPIIIELEEPESAG [r14_636_TrMRF] , please. 0.539

* * *

Listed sequences paired with reported folding stability dG unfold
METHOD NOTES: folding stability dG unfold (combined trypsin and chymotrypsin); higher = more stable
Dear colleague, please return just the value in kcal/mol, with no unit written.

Solved cases (2 shown):
RVEVLENGEVIAVFPAEFLADIPPDDPLLLTLTLTLPDGYRVYVTFYNLPDGTVVAIARVEPVEVGPELAAS [r1_394_TrMRF]: 4.22
SAGGSASSYGIEIEFSEDPNSKTKKITITVTRPDGTVETVTITNPDITDEEAKKIGEELANEVANSSAGGSA [r15_526_JUSTAS]: 2.06

May I ask what folding stability dG unfold has been recorded for SAGGSAGGSAGEFEILSIETEPPNGRVEIAIRFDDWVVVINFDNPNEPELYPVRPDDGIFSAGGSAGGSAGG [r17_145_TrROS] ? 2.3

For the sequence SAGMTAEELAEELAKELEVEVTLENGEKRRVRVEVKVERLPDGTLLLTAKVENEETGETFEIKIEIKLESAG [r5_397_TrROS_Hall] , what folding stability dG unfold is on record? 3.67

* * *

Measured folding stability dG unfold by item
METHOD NOTES: folding stability dG unfold from chymotrypsin proteolysis; higher = more stable
Give the number; kcal/mol is assumed, so skip it.

Worked cases, answers included:
SAGGSAGGSEPRLILTTFPLPEPGEPVLRLLVIGEDRILAVRVVGEKPELRELDRLDDLLAEQSAGGSAGGS [r12_299_TrMRF]: -0.433
SAGKTATFTFTLPLPENDLILRVTVRVEEVEDIGEKKVYRVNVEIDLIDKDGVPHRFSFSFLVPAEELFSAG [r14_916_TrMRF]: 5.14
SAGGSAMPADEVVEVREITDPATGKKVTVVRNKETGRYFVRVENPDGETEVFEVPGMTAEELEELASAGGSA [r15_295_TrROS_Hall]: 2.6
SAGGEKVTVTVTTETKTVTVTVYKAPAPKFKVTEITLELDENGNLRLTIKLENGETLEFDSLEDLLAALSAG [r5_618_TrROS_Hall]: 3.17
RTISIDEIREKLGMDPDDLKNMPMEEIADEIRDELPPGRAKGVKISPNEDDGMWTITVKYKNGRPVEITIDS [r1_340_TrROS]: 0.671

With those in mind, consider the next sequence.
Item under review: SAGGSAGGSDVSEEELRAIAEEIAAELGLSDITVEVEKLPTAVVRITITNPATGETIEIEVPESAGGSAGGS [r12_1000_JUSTAS] . Reported folding stability dG unfold? 1.77
